Attribution: patent US20240009160A1

# ASSAY PROCEDURE: Clearance in rat hepatocytes
# Format: in vitro ADME
# STATED CONDITIONS: read-out: intrinsic clearance (CIint)
MEASURED PROPERTY: CLint scaled (mL/min/kg)
Provide only the numeric value, understood in mL/min/kg.

Prompt: State its CLint scaled for this molecule: N[C@H]1C=C(C(=O)O)CC1=C(F)F
Completion: 24.3

====

# ASSAY PROCEDURE: Acute behavioral neurotoxicity in naive adult mice
# STATED CONDITIONS: in vivo, oral; from 6 mg/kg mouse, Reagan-Shaw conversion; read-out: human dose converted from mouse NOAEL
MEASURED PROPERTY: NOAEL

Prompt: State its NOAEL for this compound: N[C@H]1C=C(C(=O)O)CC1=C(F)F
Completion: 0.49 mg/kg
